Target: Ratio of Nucleoli Translocation and Cytoplasm, AR (gene 367)
Experiment: UPITT_HCI_U2OS_AR_TIF2_Nucleoli_Cytoplasm_Ratio_Agonist: University of Pittsburgh U2OS Androgen Receptor-Transcriptional Intermediary Factor 2 (AR-TIF2) Agonism High Content Imaging Assay for Ratio of Nucleoli Translocation and Cytoplasm (AID 2284000);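 note: hits raise the red nucleolar to cytoplasm ratio above vehicle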
Results filed as inconclusive are left out. The source made the active and inactive calls. Rule for the calls: active = hit-call score of the fitted dose curve at least 0.9, where 1 is the maximum; inconclusive = response in the unintended direction; inactive = score below 0.9.
Possible outcomes: true (1) = active, false (0) = inactive

Compound: Nc1c(Cl)c(F)nc(OCC(=O)O)c1Cl
Class assignment: false (0)
--
Compound: CC(C)N1C(=O)N(c2ccccc2)CSC1=NC(C)(C)C
Class assignment: false (0)
--
Compound: CCCCOCN(C(=O)CCl)c1c(CC)cccc1CC
Class assignment: false (0)
--
Compound: COc1ccc(-c2ccccc2)cc1NNC(=O)OC(C)C
Class assignment: false (0)
--
Compound: COC(=O)c1c(C(F)F)nc(C(F)(F)F)c(C2=NCCS2)c1CC(C)C
Class assignment: false (0)
--
Compound: CC1(C)CCC(=Cc2ccc(Cl)cc2)C1(O)Cn1cncn1 (configuration not stated)
Class assignment: true (1)
--
Compound: CCOP(=O)(OCC)Oc1nc(Cl)c(Cl)cc1Cl
Class assignment: false (0)

---

Read-out: Monokine induced gamma interferon (MIG), CXCL9 (gene 4283)
Assay: BSK_hDFCGF_MIG: BioMAP Diversity Plus: hDFCGF Assay for Monokine induced gamma interferon (MIG) Biomarker Activity (AID 2283063)
Conditions: primary human foreskin fibroblasts; actives raise or lower the signal
Method: BSK_hDFCGF is a cell-based, multiplexed-readout assay that uses foreskin fibroblast, a human skin primary cell, with measurements taken at 24 hours after chemical dosing in a 96-well plate.BSK_hDFCGF_MIG is an assay component measured in the BSK_hDFCGF assay. It measures MIG antibody related to regulation of gene expression using ELISA technology.Data from the assay component BSK_hDFCGF_MIG was analyzed into 1 assay endpoint. […]
Calls of active or inactive are those of the source. How the source made its calls: active means hit-call score of the fitted dose curve at least 0.9, where 1 is the maximum; inactive means score below 0.9.

Compound: N#Cc1c(Cl)cccc1Cl
AC50: inactive
--
Compound: CC1(C)CCC(=Cc2ccc(Cl)cc2)C1(O)Cn1cncn1 (stereo not drawn)
AC50: inactive
--
Compound: CS(=O)(=O)c1ccc(C(=O)C2C(=O)CCCC2=O)c([N+](=O)[O-])c1
AC50: inactive
--
Compound: CC(C)Oc1cccc(NC(=O)c2ccccc2C(F)(F)F)c1
AC50: inactive
--
Compound: CO/N=C(/C1=NOCCO1)c1ccccc1Oc1ncnc(Oc2ccccc2Cl)c1F
AC50: inactive
--
Compound: CCSC(=O)N1CCCCCC1
AC50: inactive
--
Compound: CCN(CC)c1nc(C)cc(OP(=S)(OC)OC)n1
AC50: inactive
--
Compound: Cc1nc(N(C)C)nc(OC(=O)N(C)C)c1C
AC50: inactive
--
Compound: Cc1c(COC(=O)[C@@H]2[C@H](/C=C(\Cl)C(F)(F)F)C2(C)C)cccc1-c1ccccc1
AC50: inactive
--
Compound: COC(=O)NS(=O)(=O)c1ccc(N)cc1
AC50: inactive
--
Compound: CNC(=O)N(C)c1nnc(C(C)(C)C)s1
AC50: inactive
--
Compound: Clc1nc(Cl)nc(Nc2ccccc2Cl)n1
AC50: 29.1 µM (active)
--
Compound: COP(=O)(OC)O/C(C)=C/C(=O)N(C)C
AC50: inactive
